Tested on: Aedes aegypti strain MONHEIM
Assay: Aedes aegypti test (AEDSAE surface treatment & contact assay)
Assay type: in vivo
Details: surface concentration 4 mg/m^2, exposure 30 minutes, 24 hours after contact, read-out: efficacy (mortality)
reported_endpoint: mortality at 4 mg/m2

INSERT INTO results (molecule, reported_endpoint, reading) VALUES
  ('Cc1nc([C@H](C)NC(=O)c2csc(Cl)c2)n(-c2ccc(C#N)cn2)n1 [II-8]', 'mortality at 4 mg/m2', '80 to 100%'),
  ('CC(NC(=O)c1cc(C(F)(F)F)cc(S(C)(=O)=O)c1)c1nc(Cl)nn1-c1ncccn1 (stereo not shown) [I-30]', 'mortality at 4 mg/m2', '80 to 100%'),
  ('C[C@H](NC(=O)c1cc(C2CC2)cc(C(F)(F)F)c1)c1ncnn1-c1ccc(Cl)cn1 [II-27]', 'mortality at 4 mg/m2', '80 to 100%'),
  ('CC(C)c1nc([C@H](C)NC(=O)c2cc(OC(F)(F)F)cc(C3CC3)c2)n(-c2ccc(C#N)cn2)n1 [I-23]', 'mortality at 4 mg/m2', '80 to 100%');

----------
System: green peach aphid (Myzus persicae)
Experiment: Myzus persicae spray test
Format: in vivo
Conditions: 120 h, application rate 500 g/ha, after 5 days
In this section, each of the compounds is paired with its reported mortality at 500 g/ha.
reported_endpoint: mortality at 500 g/ha (%)

INSERT INTO results (compound, result_units, reading) VALUES
  ('Cc1nc([C@H](C)NC(=O)c2cc(Cl)cc(S(=O)(=O)C(F)(F)F)c2)n(-c2ccc(C#N)cn2)n1', '%', 90),
  ('C[C@H](NC(=O)c1cc(C(F)(F)F)cc(S(=O)(=O)C2CC2)c1)c1ncnn1-c1ccc(C#N)cn1', '%', 90),
  ('C[C@H](NC(=O)c1cc(C(F)F)cc(S(C)(=O)=O)c1)c1nc(C2CC2)nn1-c1ncc(Cl)cn1', '%', 100),
  ('C[C@H](NC(=O)c1cc(C#N)cc([S+](C)[O-])c1)c1ncnn1-c1ccc(C#N)cn1 (some centres unmarked)', '%', 90),
  ('Cc1nc([C@H](C)NC(=O)c2csc(Cl)c2)n(-c2ncccn2)n1', '%', 90),
  ('Cc1nc([C@H](C)NC(=O)c2cc(Cl)cc(S(=O)(=O)C(F)F)c2)n(-c2ccc(C#N)cn2)n1', '%', 100),
  ('C[C@H](NC(=O)c1cc(C(F)(F)F)cc(S(C)(=O)=O)c1)c1ncnn1-c1ncccn1', '%', 100),
  ('C[C@H](NC(=O)c1cc(F)cc(S(C)(=O)=O)c1)c1nc(C2CC2)nn1-c1ncc(Cl)cn1', '%', 100);

----------
Tested on: adult cat fleas (Ctenocephalides felis)
Assay: Ctenocephalides felis in-vitro contact test, adult cat flea
Format: in vivo
Conditions: application rate 5 μg/cm^2 (=500 g/ha), after 48 hours, read-out: activity (efficacy: fleas dead or moribund)
reported_endpoint: pest or weed control at 5 µg/cm2 (%)

INSERT INTO assay_data (compound, reading) VALUES
  ('CC(C)c1nc([C@H](C)NC(=O)c2cc(OC(F)(F)F)cc(C3CC3)c2)n(-c2ccc(C#N)cn2)n1 [I-23]', 100),
  ('C[C@H](NC(=O)c1cc(C(F)F)cc(C2CC2)c1)c1ncnn1-c1ccc(C#N)cn1 [II-60]', 100),
  ('CCS(=O)(=O)c1cc(Cl)cc(C(=O)N[C@@H](C)c2nc(C3CC3)nn2-c2ncc(Cl)cn2)c1 [I-24]', 80),
  ('Cc1nc([C@H](C)NC(=O)c2cc(Cl)cc(C3(C#N)CC3)c2)n(-c2ccc(C#N)cn2)n1 [II-38]', 100),
  ('CC(NC(=O)c1cc(Cl)cc(S(C)(=O)=O)c1)c1nc(Br)nn1-c1ncccn1 (centres unmarked) [I-34]', 90),
  ('C[C@H](NC(=O)c1cc(C#N)cc([S+](C)[O-])c1)c1ncnn1-c1ccc(C#N)cn1 (some centres unmarked) [II-12]', 100),
  ('CC(NC(=O)c1cc(Cl)cc(S(C)(=O)=O)c1)c1nc(Cl)nn1-c1ccc(C#N)cn1 (centres unmarked) [I-32]', 100),
  ('C[C@H](NC(=O)c1cc(C(F)F)cc(S(C)(=O)=O)c1)c1nc(C2CC2)nn1-c1ccc(C#N)cn1 [I-51]', 90);
